Would you mind telling me the reported IC50 of each entry?
target: PI3K p110 beta/p85 alpha (Homo sapiens); assay: Inhibition of recombinant human full-length N-terminal His6-tagged p110beta/recombinant human full length p85alpha expressed in baculovirus infected Sf21 insect cells using PIP2 as substrate measured after 1 hr by Alexa633 Tracer-based fluorescence polarization assay
Sequence (P27986 whole entry): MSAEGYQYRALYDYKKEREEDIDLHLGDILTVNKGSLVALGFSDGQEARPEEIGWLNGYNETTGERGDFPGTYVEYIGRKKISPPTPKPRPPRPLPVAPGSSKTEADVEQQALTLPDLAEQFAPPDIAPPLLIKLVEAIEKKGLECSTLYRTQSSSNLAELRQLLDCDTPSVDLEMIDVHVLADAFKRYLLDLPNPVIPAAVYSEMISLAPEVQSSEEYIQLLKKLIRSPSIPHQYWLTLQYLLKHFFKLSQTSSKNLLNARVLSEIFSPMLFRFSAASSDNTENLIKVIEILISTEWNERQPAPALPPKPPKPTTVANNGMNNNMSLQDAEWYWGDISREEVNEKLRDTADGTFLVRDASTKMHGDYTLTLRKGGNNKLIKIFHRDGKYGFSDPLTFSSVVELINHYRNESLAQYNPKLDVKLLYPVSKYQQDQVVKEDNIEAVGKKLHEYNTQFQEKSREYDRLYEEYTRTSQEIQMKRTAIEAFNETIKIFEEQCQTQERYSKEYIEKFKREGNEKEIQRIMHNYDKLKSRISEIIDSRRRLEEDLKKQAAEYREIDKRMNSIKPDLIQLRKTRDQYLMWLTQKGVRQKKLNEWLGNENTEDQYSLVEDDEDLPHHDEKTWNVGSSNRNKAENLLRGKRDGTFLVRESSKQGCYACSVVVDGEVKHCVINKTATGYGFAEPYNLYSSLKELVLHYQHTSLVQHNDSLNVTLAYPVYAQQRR
Sequence (P42338 whole entry): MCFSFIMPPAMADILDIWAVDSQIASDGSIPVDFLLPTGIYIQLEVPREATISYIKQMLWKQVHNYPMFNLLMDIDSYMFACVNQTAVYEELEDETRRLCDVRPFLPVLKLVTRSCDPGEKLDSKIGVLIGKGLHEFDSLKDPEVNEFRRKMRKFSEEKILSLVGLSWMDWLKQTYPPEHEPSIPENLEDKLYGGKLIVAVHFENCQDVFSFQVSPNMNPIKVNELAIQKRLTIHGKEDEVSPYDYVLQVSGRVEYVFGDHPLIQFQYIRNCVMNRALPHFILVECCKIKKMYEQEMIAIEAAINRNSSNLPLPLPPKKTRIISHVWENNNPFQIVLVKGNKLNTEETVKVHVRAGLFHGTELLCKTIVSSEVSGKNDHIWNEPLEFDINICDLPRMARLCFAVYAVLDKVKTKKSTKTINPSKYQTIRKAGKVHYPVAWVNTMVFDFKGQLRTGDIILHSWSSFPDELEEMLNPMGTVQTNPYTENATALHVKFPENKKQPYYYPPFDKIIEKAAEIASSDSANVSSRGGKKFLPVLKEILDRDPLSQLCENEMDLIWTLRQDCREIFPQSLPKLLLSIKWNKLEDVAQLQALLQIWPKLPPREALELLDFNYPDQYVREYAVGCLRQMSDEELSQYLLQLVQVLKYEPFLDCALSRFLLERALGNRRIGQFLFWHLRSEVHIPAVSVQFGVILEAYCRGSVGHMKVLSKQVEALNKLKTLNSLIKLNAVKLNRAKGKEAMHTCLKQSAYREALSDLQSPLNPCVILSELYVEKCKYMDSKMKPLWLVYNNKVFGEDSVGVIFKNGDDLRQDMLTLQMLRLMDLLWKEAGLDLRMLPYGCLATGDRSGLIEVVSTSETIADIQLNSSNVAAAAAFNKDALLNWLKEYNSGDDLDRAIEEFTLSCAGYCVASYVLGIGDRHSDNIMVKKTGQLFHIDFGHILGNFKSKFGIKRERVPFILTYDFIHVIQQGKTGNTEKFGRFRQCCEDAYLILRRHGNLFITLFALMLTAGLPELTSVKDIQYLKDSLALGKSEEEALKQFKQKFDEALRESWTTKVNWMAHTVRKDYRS
Field format: number, assumed nM, no unit text.

// IC50 lookup, key: C[C@H]1COCCN1c1nc(-c2cnc(N)cc2F)cc(C2(S(C)(=O)=O)CC2)n1
376

Give its IC50 value. Item: C[C@H]1COCCN1c1nc(-c2cnc(N)cc2C(F)(F)F)cc(C2(S(C)(=O)=O)CC2)n1
264

====

Molecular target: UniProtKB P20813
Sequence (P20813 whole entry): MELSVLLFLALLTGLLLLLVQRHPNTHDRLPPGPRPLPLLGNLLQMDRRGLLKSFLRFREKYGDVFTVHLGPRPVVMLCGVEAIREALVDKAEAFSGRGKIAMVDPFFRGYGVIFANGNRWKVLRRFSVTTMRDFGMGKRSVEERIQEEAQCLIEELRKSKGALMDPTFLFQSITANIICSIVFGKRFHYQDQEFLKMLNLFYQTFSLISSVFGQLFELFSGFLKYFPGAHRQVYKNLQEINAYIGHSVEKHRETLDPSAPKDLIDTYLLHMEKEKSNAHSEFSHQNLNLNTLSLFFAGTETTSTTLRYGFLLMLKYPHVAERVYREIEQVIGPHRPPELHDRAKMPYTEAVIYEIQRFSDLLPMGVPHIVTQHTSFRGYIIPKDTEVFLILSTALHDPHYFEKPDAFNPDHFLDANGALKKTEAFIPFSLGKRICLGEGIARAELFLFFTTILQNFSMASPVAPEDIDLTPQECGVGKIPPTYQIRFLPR
pIC50: −log10 of the molar value.
MEASURED METRIC: pIC50

Request the reported pIC50 associated with C[C@H]1COCCN1c1nc(-c2cnc(N)cc2F)cc(C2(S(C)(=O)=O)CC2)n1
< 5.00

====

target: Cytochrome P450 3A4 (Homo sapiens, UniProt P08684); assay: Inhibition of CYP3A4 in human liver microsomes using midazolam as substrate pretreated for 5 mins followed by NADPH addition and measured after 5 mins by LC-MS analysis; format: ADME
Sequence (P08684 whole entry): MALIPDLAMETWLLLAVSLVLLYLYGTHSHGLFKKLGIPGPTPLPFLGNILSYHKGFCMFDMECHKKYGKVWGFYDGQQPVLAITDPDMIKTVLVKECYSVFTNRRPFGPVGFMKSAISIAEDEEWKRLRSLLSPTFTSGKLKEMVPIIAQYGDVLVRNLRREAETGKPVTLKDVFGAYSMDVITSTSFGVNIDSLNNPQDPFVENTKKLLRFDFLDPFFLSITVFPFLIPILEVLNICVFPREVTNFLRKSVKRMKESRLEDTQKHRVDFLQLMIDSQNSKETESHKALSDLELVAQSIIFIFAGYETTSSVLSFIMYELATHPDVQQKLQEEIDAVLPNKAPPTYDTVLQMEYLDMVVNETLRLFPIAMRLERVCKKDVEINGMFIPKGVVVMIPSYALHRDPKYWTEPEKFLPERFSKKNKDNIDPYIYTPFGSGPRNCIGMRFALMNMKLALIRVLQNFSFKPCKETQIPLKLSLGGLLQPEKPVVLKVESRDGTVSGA
pIC50: −log10 of the molar value.
MEASURED METRIC: pIC50

GET /values?readout=pIC50&system=Cytochrome P450 3A4 (Homo sapiens, UniProt P08684)&item= C[C@H]1COCCN1c1nc(-c2cnc(N)cc2F)cc(C2(S(C)(=O)=O)CC2)n1
< 5.00

====

assay: Intrinsic clearance in mouse liver microsomes at […] pretreated up to 45 mins followed by NADPH addition and measured by LC-MS/MS analysis; format: ADME, microsome; settings: read-out: CLH
I'd appreciate it if you could supply CLint scaled values for the items below.

Could you tell me which CLint scaled is on file for C[C@H]1COCCN1c1nc(-c2cnc(N)cc2F)cc(C(C)(C)S(C)(=O)=O)n1 ?
40 to 140 mL/min/kg

Quick one: CLint scaled for CS(=O)(=O)C1(c2cc(-c3cnc(N)cc3F)nc(N3CCOCC3)n2)CC1 ?
40 to 140 mL/min/kg

Value lookup for CLint scaled; key = C[C@H]1COCCN1c1nc(-c2cnc(N)cc2F)cc(C2(S(C)(=O)=O)CC2)n1
40 to 140 mL/min/kg

Data request, read-out CLint scaled, for CS(=O)(=O)C1(c2cc(-c3cnc(N)cc3C(F)(F)F)nc(N3CCOCC3)n2)CC1
185 mL/min/kg

Can you look up the measured CLint scaled of Nc1cc(C(F)(F)F)c(-c2cc(N3CCOCC3)nc(N3CCOCC3)n2)cn1 for me?
151 mL/min/kg

Would you kindly share the measured CLint scaled for CC(C)(c1cc(-c2cnc(N)cc2F)nc(N2CCOCC2)n1)S(C)(=O)=O ?
40 to 140 mL/min/kg

====

assay: Apparent permeability across apical to basolateral side in human Caco2 cells measured after 90 mins by LC-MS/MS analysis; assay type: ADME, cell-based; conditions: Caco-2
MEASURED METRIC: Papp A→B at 1.5 h

Entry C[C@H]1COCCN1c1nc(-c2cnc(N)cc2F)cc(C2(S(C)(=O)=O)CC2)n1 has what Papp A→B at 1.5 h?
> 10 ×10⁻⁶ cm/s

====

Please go through the items and note down their pIC50.
target: Serine/threonine-protein kinase mTOR (Homo sapiens); assay: Inhibition of recombinant human GST-tagged mTOR catalytic domain (1360 to 2549 residues) expressed in baculovirus expression system using GFP-4EBP1 as substrate measured after 1 hr by Lathascreen method
Worth noting: pIC50 values are minus log10 of concentrations stated in mol/L.

Any idea what its pIC50 is? The compound is C[C@H]1COCCN1c1nc(-c2cnc(N)cc2C(F)(F)F)cc(C2(S(C)(=O)=O)CC2)n1
5.67

Which pIC50 is reported for this compound? CS(=O)(=O)C1(c2cc(-c3cnc(N)cc3C(F)(F)F)nc(N3CCOCC3)n2)CC1
5.77

// pIC50 lookup, key: C[C@H]1COCCN1c1nc(-c2cnc(N)cc2F)cc(C2(S(C)(=O)=O)CC2)n1
6.73

Bench note: what pIC50 did CS(=O)(=O)Cc1cc(-c2cnc(N)cc2C(F)(F)F)nc(N2CCOCC2)n1 show?
4.85

====

experiment: Apparent permeability across basolateral to apical side in human Caco2 cells measured after 90 mins by LC-MS/MS analysis; format: ADME, cell-based; conditions: Caco-2
MEASURED METRIC: Papp B→A at 1.5 h

// Papp B→A at 1.5 h lookup, key: C[C@H]1COCCN1c1nc(-c2cnc(N)cc2F)cc(C2(S(C)(=O)=O)CC2)n1
> 10 ×10⁻⁶ cm/s

====

assay: Clearance in CD1 mouse at 5 mg/kg, iv by LC-MS/MS analysis; format: ADME, organism-based; conditions: in vivo
MEASURED METRIC: clearance (mL/min/kg)
The reply should be a number in mL/min/kg, with the unit left off.

So what does the record say about clearance for C[C@H]1COCCN1c1nc(-c2cnc(N)cc2F)cc(C2(S(C)(=O)=O)CC2)n1 ?
15.2

====

experiment: Oral bioavailability in CD1 mouse at 10 mg/kg administered via gavage by LC-MS/MS analysis; type: ADME, organism-based; details: in vivo
MEASURED METRIC: bioavailability

Quick one: bioavailability of C[C@H]1COCCN1c1nc(-c2cnc(N)cc2F)cc(C2(S(C)(=O)=O)CC2)n1 ?
94.6%

====

molecular target: PI3-kinase p110-alpha/p85-alpha (Homo sapiens, UniProt P42336, E545K); assay: Inhibition of recombinant human His-tagged p85alpha/p110alpha E545K mutant expressed in insect cells
Sequence (P42336 whole entry E545K, looked up): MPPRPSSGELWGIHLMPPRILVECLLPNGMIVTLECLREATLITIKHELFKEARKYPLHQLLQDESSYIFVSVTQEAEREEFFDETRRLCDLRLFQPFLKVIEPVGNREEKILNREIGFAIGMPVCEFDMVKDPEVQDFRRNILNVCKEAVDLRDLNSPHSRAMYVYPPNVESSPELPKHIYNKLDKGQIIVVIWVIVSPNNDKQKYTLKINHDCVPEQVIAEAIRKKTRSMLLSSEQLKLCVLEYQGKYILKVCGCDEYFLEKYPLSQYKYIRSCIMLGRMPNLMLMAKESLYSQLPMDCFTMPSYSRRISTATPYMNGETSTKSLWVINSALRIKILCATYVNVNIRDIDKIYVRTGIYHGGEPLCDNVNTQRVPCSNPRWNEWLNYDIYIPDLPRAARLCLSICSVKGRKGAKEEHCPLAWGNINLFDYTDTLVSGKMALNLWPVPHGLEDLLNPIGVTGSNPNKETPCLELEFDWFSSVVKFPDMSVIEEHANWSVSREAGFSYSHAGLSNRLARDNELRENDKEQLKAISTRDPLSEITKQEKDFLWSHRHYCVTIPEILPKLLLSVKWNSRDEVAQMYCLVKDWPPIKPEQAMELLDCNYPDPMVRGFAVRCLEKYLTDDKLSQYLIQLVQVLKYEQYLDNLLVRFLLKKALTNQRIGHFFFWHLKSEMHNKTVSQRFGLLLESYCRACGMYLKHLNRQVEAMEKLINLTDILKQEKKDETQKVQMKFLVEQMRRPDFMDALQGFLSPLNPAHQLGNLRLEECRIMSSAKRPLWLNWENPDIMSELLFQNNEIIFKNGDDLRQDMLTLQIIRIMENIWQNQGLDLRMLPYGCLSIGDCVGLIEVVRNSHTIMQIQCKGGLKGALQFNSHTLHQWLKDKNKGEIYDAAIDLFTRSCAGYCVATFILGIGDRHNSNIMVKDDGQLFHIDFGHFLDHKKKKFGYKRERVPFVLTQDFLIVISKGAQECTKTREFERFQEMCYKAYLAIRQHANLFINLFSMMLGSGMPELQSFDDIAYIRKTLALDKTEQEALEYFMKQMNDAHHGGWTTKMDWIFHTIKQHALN
MEASURED METRIC: IC50 (µM)
Output spec: scalar in µM, unitless text.

Which value of IC50 has been reported for C[C@H]1COCCN1c1nc(-c2cnc(N)cc2F)cc(C2(S(C)(=O)=O)CC2)n1 in the records?
0.011

====

pIC50: −log10 of the molar value.
MEASURED METRIC: pIC50

# query: pIC50 | item C[C@H]1COCCN1c1nc(-c2cnc(N)cc2F)cc(C2(S(C)(=O)=O)CC2)n1 | system: Cytochrome P450 2C19 (Homo sapiens, UniProt P33261)
< 5.00

====

biological target: PI3-kinase p110-alpha/p85-alpha (Homo sapiens); assay: Inhibition of recombinant human full length N-terminal His-tagged p110alpha/p85alpha expressed in baculovirus expression system using PIP2 as substrate measured after 1 hr by Alexa633 Tracer-based fluorescence polarization assay
Under this convention, TRUE denotes IC50 strictly below 0.04 µM and FALSE denotes IC50 at or above 0.04 µM.

Is 0.04 µM strictly greater than the molecule's reported IC50? molecule: Nc1cc(C(F)(F)F)c(-c2cc(C3(S(=O)(=O)c4ccccc4F)CC3)nc(N3CCOCC3)n2)cn1
TRUE

Is it true that IC50 reported for Nc1cc(C(F)(F)F)c(-c2cc(C3(S(=O)(=O)c4cccc(F)c4)CC3)nc(N3CCOCC3)n2)cn1 is less than 0.04 µM?
TRUE

Hello, I'm reviewing records and need to know if IC50 of CC(C)S(=O)(=O)C(C)(C)c1cc(-c2cnc(N)cc2C(F)(F)F)nc(N2CCOCC2)n1 is below 0.04 µM. Could you check?
FALSE

Lab log: compare recorded IC50 with 0.04 µM; is it strictly lower for CC(C)S(=O)(=O)C1(c2cc(-c3cnc(N)cc3C(F)(F)F)nc(N3CCOCC3)n2)CC1 ?
FALSE

====

assay: AUClast in CD1 mouse at 5 mg/kg, iv by LC-MS/MS analysis; assay type: ADME, organism-based; design: dose 5 mg/kg, time 0 - last, route intravenous; details: in vivo
MEASURED METRIC: AUC(0-t)
Give your result as the value with the unit written after it.

If you can, please state the reported AUC(0-t) value of C[C@H]1COCCN1c1nc(-c2cnc(N)cc2F)cc(C2(S(C)(=O)=O)CC2)n1 .
5440 ng·h/mL

The reported measurements were obtained from ChEMBL document CHEMBL4196123.
